molecular target: pre-existing anti-scFv903 antibodies in human serum H19 (human); experiment: competition ADA bridging ELISA
measuredEndpoint: signal change in competition ELISA (% reduction in OD) (%)
Give the quantity in %, number only.

Tell me measured signal change in competition ELISA (% reduction in OD) for scFv 903 (scFv) scFv: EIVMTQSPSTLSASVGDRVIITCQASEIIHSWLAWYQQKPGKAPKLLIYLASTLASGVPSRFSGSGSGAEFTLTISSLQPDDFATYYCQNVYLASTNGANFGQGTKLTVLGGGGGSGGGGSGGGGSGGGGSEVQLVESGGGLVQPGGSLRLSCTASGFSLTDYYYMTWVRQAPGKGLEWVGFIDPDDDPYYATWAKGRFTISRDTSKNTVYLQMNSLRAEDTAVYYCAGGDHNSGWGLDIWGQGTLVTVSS please.
-90

Check the records and state signal change in competition ELISA (% reduction in OD) for scFv 961 (scFv) scFv: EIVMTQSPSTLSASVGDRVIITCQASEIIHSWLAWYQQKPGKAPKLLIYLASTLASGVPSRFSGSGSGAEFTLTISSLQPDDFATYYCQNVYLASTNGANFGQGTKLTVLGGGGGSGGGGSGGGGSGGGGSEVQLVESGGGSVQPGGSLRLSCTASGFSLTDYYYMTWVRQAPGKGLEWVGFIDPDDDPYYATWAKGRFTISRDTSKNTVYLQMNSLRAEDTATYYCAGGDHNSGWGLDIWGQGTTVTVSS
-64

Indicate the recorded signal change in competition ELISA (% reduction in OD) value for this binder: scFv105 (scFv) scFv: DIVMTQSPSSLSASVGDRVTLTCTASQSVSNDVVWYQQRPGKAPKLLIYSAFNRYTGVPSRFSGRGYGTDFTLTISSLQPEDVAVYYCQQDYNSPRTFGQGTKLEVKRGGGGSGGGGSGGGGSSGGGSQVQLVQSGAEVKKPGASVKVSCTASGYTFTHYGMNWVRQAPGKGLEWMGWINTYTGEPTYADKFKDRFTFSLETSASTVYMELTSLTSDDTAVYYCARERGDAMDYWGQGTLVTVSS
-73

Respond only with signal change in competition ELISA (% reduction in OD) recorded for scFv 791 (scFv) scFv: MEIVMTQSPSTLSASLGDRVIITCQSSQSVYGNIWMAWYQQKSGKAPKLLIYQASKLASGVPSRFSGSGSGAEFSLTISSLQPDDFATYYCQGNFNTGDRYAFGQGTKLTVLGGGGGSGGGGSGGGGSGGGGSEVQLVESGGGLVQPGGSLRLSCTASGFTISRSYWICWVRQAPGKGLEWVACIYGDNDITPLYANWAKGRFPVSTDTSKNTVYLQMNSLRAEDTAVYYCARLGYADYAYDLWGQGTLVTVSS
-84
